Values from patent US20110002929A1

- TEST_TARGET: T1, human RANK-L (human, UniProt O14788 140-317, limits assumed)
- T1 construct: Soluble protein, used coated, biotinylated or labelled in ELISA, AlphaScreen, FMAT and Biacore; also called hRANK-L; soluble human RANK-L
- T1 sequence (looked up): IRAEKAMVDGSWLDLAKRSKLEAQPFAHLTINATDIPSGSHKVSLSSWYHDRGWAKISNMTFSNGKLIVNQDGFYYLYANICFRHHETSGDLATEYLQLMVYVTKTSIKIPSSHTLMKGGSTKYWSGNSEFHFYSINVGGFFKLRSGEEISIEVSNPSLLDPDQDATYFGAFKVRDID
- TEST_DETAILS: SPR Biacore 3000, hRANK-L on CM5, 100 nM Nanobody; only indicative (one concentration)
EXPERIMENTAL_ENDPOINT: log10 of kon (log10 of the value in M⁻¹ s⁻¹)
Annotation: log10 of kon, M⁻¹ s⁻¹ basis.

Field: example entries. Status: answers known.
[[record]]
binder = "RANKL13basic (VHH, Humanized variant of RANKL13; also called RANKL13humbasic) VHH: EVQLVESGGGLVQPGGSLRLSCAASGRTFRSYPMGWFRQAPGKGREFVASITGSGGSTYYADSVKGRFTISRDNAKNTLYLQMNSLRPEDTAVYSCAAYIRPDTYLSRDYRKYDYWGQGTLVTVSS"
experimental_endpoint = "log10 of kon"
value_reported = 5.95

[[record]]
binder = "RANKL18hum2 (VHH, name in Kabat numbering) VHH: EVQLVESGGGLVQPGGSLRLSCAASGRTFSRSAMGWFRQAPGKGREFVSFITGSGGTTYYGESVKGRFTISRDNAQNPVYLQMNSLRPEDTAVYYCGVYRRTYISSTYSESSEYDYWGQGTLVTVSS"
experimental_endpoint = "log10 of kon"
value_reported = 4.80

[[record]]
binder = "RANKL18hum1 (VHH, name in Kabat numbering) VHH: EVQLVESGGGLVQPGGSLRLSCAASGFTFSRSAMGWFRQAPGKGREFVGFITGSGGTTYYGESVKGRFTISRDNAQNPVYLQMNSLRPEDTAVYYCGVYRRTYISSTYSESSEYDYWGQGTLVTVSS"
experimental_endpoint = "log10 of kon"
value_reported = 5.18

[[record]]
binder = "RANKL13hum5 (VHH) VHH: EVQLVESGGGLVQPGGSLRLSCAASGFTFSSYPMGWFRQAPGKGREFVSSITGSGGSTYYADSVKGRFTISRDNAKNTLYLQMNSLRPEDTAVYYCAAYIRPDTYLSRDYRKYDYWGQGTLVTVSS"
experimental_endpoint = "log10 of kon"
value_reported = 5.90

[[record]]
binder = "RANKL18hum5 (VHH) VHH: EVQLVESGGGLVQPGGSLRLSCAASGRTFSRSAMGWFRQAPGKGREFVGFITGSGGTTYYGESVKGRFTISRDNAQNPVYLQMNSLRPEDTAVYYCAVYRRTYISSTYSESSEYDYWGQGTLVTVSS"
experimental_endpoint = "log10 of kon"
value_reported = 5.63


query: Item under review: RANKL18 (VHH, not shown: small tags and cut ends) VHH: EVQLVESGGGLVQAGGSLRLSCAASGRTFSRSAMGWFRQAPGKEREFVGFITGSGGTTYYGESVKGRFTISRDNAQNPVYLQMNSLKPEDTAVYYCGVYRRTYISSTYSESSEYDYWGQGTQVTVSS . Reported log10 of kon?
result: 5.49

query: Now give it for RANKL13 (VHH, not shown: small tags and cut ends) VHH: EVQLVESGGGLVQAGGSLRLSCAASGRTFRSYPMGWFRQAPGKEREFVASITGSGGSTYYADSVKGRFTISRDNAKNTVYLQMNSLRPEDTAVYSCAAYIRPDTYLSRDYRKYDYWGQGTQVTVSS too.
result: 5.70

query: And the next one, RANKL13hum4 (VHH, name in Kabat numbering) VHH: EVQLVESGGGLVQPGGSLRLSCAASGRTFRSYPMGWFRQAPGKGREFVASITGSGGSTYYADSVKGRFTISRDNAKNTLYLQMNSLRPEDTAVYYCAAYIRPDTYLSRDYRKYDYWGQGTLVTVSS ?
result: 5.58
